Source: ChEMBL document CHEMBL6096713

target_or_test_system: Carbonic anhydrase 9 (Homo sapiens)
measured_quantity: Ki

Please report the recorded Ki for O=C(O)Cc1nnn[nH]1 . 7.68 µM

====

target_or_test_system: Carbonic anhydrase 1 (Homo sapiens, UniProt P00915)
Sequence (P00915 whole entry): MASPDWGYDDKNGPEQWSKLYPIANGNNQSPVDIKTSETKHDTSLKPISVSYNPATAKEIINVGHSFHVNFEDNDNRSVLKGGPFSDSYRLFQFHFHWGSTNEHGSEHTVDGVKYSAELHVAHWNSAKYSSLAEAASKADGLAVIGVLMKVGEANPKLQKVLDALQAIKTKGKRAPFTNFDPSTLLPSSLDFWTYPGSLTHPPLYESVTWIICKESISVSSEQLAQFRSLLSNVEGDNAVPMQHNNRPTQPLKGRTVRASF
measured_quantity: Ki

Request: Ki, test system Carbonic anhydrase 1 (Homo sapiens, UniProt P00915), entry O=C(O)Cc1nnn[nH]1 4.21 µM
